- tgt: human recombinant Btk (Homo sapiens)
- Sequence (Q06187 whole entry): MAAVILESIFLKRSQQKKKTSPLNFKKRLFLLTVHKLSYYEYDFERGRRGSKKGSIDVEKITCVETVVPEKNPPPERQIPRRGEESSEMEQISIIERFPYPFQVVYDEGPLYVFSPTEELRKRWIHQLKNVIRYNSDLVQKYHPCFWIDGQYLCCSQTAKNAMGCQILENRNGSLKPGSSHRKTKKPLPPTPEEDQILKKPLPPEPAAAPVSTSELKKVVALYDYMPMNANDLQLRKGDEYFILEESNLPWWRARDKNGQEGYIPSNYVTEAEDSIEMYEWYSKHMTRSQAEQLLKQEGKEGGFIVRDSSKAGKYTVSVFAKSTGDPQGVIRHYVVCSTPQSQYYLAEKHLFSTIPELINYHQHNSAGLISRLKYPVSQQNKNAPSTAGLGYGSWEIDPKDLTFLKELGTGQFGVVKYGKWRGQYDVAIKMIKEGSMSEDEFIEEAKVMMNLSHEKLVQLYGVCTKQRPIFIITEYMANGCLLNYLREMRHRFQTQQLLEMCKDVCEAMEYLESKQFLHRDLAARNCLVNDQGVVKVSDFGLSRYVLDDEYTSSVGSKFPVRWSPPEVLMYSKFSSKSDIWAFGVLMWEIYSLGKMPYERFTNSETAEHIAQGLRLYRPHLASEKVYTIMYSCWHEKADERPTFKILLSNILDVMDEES
- protocol: Human Recombinant Btk Enzyme Assay (LLE_BTK)
For each of the compounds below, state its log10 of IC50.
Use the decimal logarithm of IC50 (nM).

A selection of reference data follows.
CN1CCCC(c2ccc(Nc3nc(N4CCC[C@@H](NC(=O)Nc5nnc(C6CC6)s5)C4)c(F)cc3C(N)=O)cc2)C1 (stereo partly shown); -0.10
NC(=O)c1cc(F)c(C2CCCC(OC(=O)c3ccccc3)C2)nc1Nc1ccc(N2CCOCC2)cc1 (stereo not shown); 2.87
CN1CCN(c2ccc(Nc3nc(N4CCC[C@@H](NC(=O)c5ccc(F)c(F)c5)C4)c(F)cc3C(N)=O)cc2)CC1; 0.00
Cc1csc(NC(=O)N[C@@H]2CCCN(c3ccc(C(N)=O)c(Nc4ccc(N5CCOCC5)cc4)n3)C2)n1; 2.88
CN1CCC(C)(c2ccc(Nc3nc(N4CCCC5(CC(c6ccccc6)=NO5)C4)c(F)cc3C(N)=O)cc2)CC1 (stereo not shown); 0.30
CN1CCCC(c2ccc(Nc3nc(N4CCC[C@@H](NC(=O)Nc5nncs5)C4)c(F)cc3C(N)=O)cc2)C1 (stereo partly shown); 0.30

Could you now consider this next compound?
// sample NC(=O)c1cc(F)c(N2CCCCC2)nc1Nc1ccc(F)cc1 , its log10 of IC50 was 2.94

----------
- Tested on: Ramos B cells with beta-lactamase reporter gene under control of an NFAT response element
- protocol: NFAT-bla RA1 Reporter Assay (Ramos-NFAT)
- Type: cell-based, human
- condition: Homo sapiens, Ramos, read-out: IMM Ramos-NFAT (IC50)
For each record, write down the corresponding pIC50.
Answers are plain numbers, as −log10 of the molar value.

As a guide, the following entries are already answered.
CN1CCCC(c2ccc(Nc3nc(N4CCC[C@@H](NC(=O)Nc5nnc(C6CC6)s5)C4)c(F)cc3C(N)=O)cc2)C1 (stereo partly shown) [Example 560]; 6.74
CN(C)S(=O)(=O)c1ccc(Nc2nc(N3CCC[C@@H](NC(=O)c4ccccc4)C3)c(F)cc2C(N)=O)cc1 [Example 508]; 6.85
NC(=O)c1cc(F)c(N2CCC[C@@H](NC(=O)Nc3nccs3)C2)nc1Nc1ccc(C2CCOCC2)cc1 [Example 555]; 6.72
CN1CCCC(c2ccc(Nc3nc(N4CCC[C@@H](NC(=O)Nc5nncs5)C4)c(F)cc3C(N)=O)cc2)C1 (stereo partly shown) [Example 558]; 6.42
CC(C)(C)OC(=O)N1CCC(O)(c2ccc(Nc3nc(N4CCCCC4)c(F)cc3C(N)=O)cc2)C(C)(C)C1 (stereo not shown) [Example 524]; 5.24

For every record below, what is its pIC50?
1. CN1CCN(c2ccc(Nc3nc(N4CCC(O)CC4)c(F)cc3C(N)=O)cc2)CC1 [Example 407]
2. CN1CCC(C)(c2ccc(Nc3nc(N4CCC[C@@H](N5CCCC5=O)C4)c(F)cc3C(N)=O)cc2)CC1 [Example 566]
3. CN1CCN(c2ccc(Nc3nc(N4CCC[C@@H](NC(=O)c5ccccc5)C4)c(F)cc3C(N)=O)cc2)CC1 [Example 388]
4. CN1CCCC(c2ccc(Nc3nc(N4CCC[C@@H](NC(=O)Nc5nccs5)C4)c(F)cc3C(N)=O)cc2)C1 (stereo partly shown) [Example 557]
5. COc1ccc([C@H](C)N[C@@H]2C=C(c3nc(Nc4ccc(N5CCOCC5)cc4)c(C(N)=O)cc3F)CCC2)cc1 [Example 437]
6. Cc1ccc(NC(=O)N[C@@H]2CCCN(c3ccc(C(N)=O)c(Nc4ccc(N5CCN(C)CC5)cc4)n3)C2)cc1C [Example 283]

Marked response:
[6.92, 7.05, 7.15, 7.22, 5.54, 6.92]

Dear colleague, could you please provide pIC50 for the compounds listed below?
1. NC(=O)c1cc(F)c(N2CCC[C@@H](NC(=O)Nc3nccs3)C2)nc1Nc1ccc(C(=O)N2CCOCC2)cc1 [Example 382]
2. CN1CCN(c2ccc(Nc3nc(N4CCC[C@@H](NC(=O)c5ccc(N(C)C)cc5)C4)c(F)cc3C(N)=O)cc2)CC1 [Example 414]
3. NC(=O)c1cc(F)c(N2CCC[C@@H](NC(=O)Nc3nccs3)C2)nc1Nc1ccc(CCn2ccnc2)cc1 [Example 548]
4. CN1CCN(c2ccc(Nc3nc(N4CCC[C@@H](NC(=O)Nc5nccs5)C4)c(F)cc3C(N)=O)cc2F)CC1 [Example 480]
5. CN1CCC(c2ccc(Nc3nc(N4CCC[C@@H](NC(=O)c5ccccc5)C4)c(F)cc3C(N)=O)cc2)CC1 [Example 490]

Marked response:
6.10
6.64
6.57
7.40
6.57

Please give pIC50 for each item listed below.
1. COc1ccc([C@H](C)N[C@H]2CCC[C@@H](c3nc(Nc4ccc(N5CCOCC5)cc4)c(C(N)=O)cc3F)C2)cc1 [Example 436]
2. NC(=O)c1cc(F)c(N2CCC[C@@H](NC(=O)Nc3nccs3)C2)nc1Nc1ccc(N2CCOCC2)cc1 [Example 421]
3. NC(=O)c1cc(F)c(N2CCC[C@@H](NC(=O)Nc3nccs3)C2)nc1Nc1ccc(CCO)cc1 [Example 545]
4. NC(=O)c1cc(F)c(N2CCC[C@@H](NC(=O)c3ccccc3)C2)nc1Nc1ccc(N2CCOCC2)cc1 [Example 422]
5. CN1CCN(c2ccc(Nc3nc(N4CCC[C@@H](NC(=O)c5ccc(F)c(F)c5)C4)c(F)cc3C(N)=O)cc2)CC1 [Example 413]
6. CN1CCC(C)(c2ccc(Nc3nc(N4CCCC5(CC(c6ccccc6)=NO5)C4)c(F)cc3C(N)=O)cc2)CC1 (stereo not shown) [Example 571]

Marked response:
5.10
7.40
6.80
6.92
6.62
6.82

# batch: return pIC50 for each of the 6 compounds below
1. CN1CCC(C)(c2ccc(Nc3nc(N4CCC[C@@H](NC(=O)Nc5ncc(F)s5)C4)c(F)cc3C(N)=O)cc2)CC1 [Example 495]
2. CC(=O)N1CCN(c2ccc(Nc3nc(N4CCC[C@@H](NC(=O)Nc5ccc(C)c(C)c5)C4)ccc3C(N)=O)cc2)CC1 [Example 361]
3. CC(C)N1CCN(c2ccc(Nc3nc(N4CCC[C@@H](NC(=O)c5ccccc5)C4)ccc3C(N)=O)cc2)CC1 [Example 357]
4. CS(=O)(=O)c1ccc(Nc2nc(N3CCC[C@@H](NC(=O)c4ccccc4)C3)c(F)cc2C(N)=O)cc1 [Example 506]
5. CN(C)CCc1ccc(Nc2nc(N3CCC[C@@H](NC(=O)Nc4nncs4)C3)c(F)cc2C(N)=O)cc1 [Example 462]
6. CN1CCC(C)(c2ccc(Nc3nc(N4CCC[C@@H](NC(=O)Nc5nccs5)C4)c(F)cc3C(N)=O)cc2)CC1 [Example 554]

Marked response:
7.10
7.00
7.00
6.82
6.60
7.40
